Collected pKd values appear next to each entry.
Molecular target: cynomolgus monkey EL (cynomolgus monkey)
Experiment: Biacore; EL captured by anti-C2-tag Ab; bivalent fit
The value called pKd is obtained by taking minus log10 of the concentration in mol/L.

binder: h13B3-S1 (antibody, V domains shown) VH: QVQLVQSGAEVKKPGASVKVSCKASGYTFTEYTMHWVRQAPGQGLEWMGSINPYYGGTSYNEKFKDRVTMTRDTSTSTVYMELSSLRSEDTAVYYCARYGNYVGYFDYWGQGTTVTVSS VL: EIVLTQSPGTLSLSPGERATLSCRASSSVHYMYWYQQKPGQAPRLLIYYTSNLAPGIPDRFSGSGSGTDFTLTISRLEPEDFAVYYCQQFTSSPYTFGGGTKVEIK
pKd: 8.24
--
binder: h23H8-S2 (antibody, V domains shown) VH: QVQLVQSGAEVKKPGASVKVSCKASGYTFTDNTIHWVRQAPGQGLEWMGHINPYYGGTNNNEKFKDRVTMTRDTSISTAYMELSRLRSDDTAVYYCARKGIYYSSPFDYWGQGTTVTVSS VL: DIQMTQSPSSLSASVGDRVTITCRASQDINNYLNWYQQKPGKAPKLLISYTSKLHSGVPSRFSGSGSGTDFTLTISSLQREDFATYYCQQGNTLPFTFGQGTKLEIK
pKd: 8.37
--
binder: h23H8-S1 (antibody, V domains shown) VH: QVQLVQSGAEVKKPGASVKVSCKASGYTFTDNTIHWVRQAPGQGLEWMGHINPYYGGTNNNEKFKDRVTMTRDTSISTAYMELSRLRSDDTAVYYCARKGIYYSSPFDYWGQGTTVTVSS VL: DIQMTQSPSSLSASVGDRVTITCRASQDINNYLNWYQQKPGKAPKLLIYYTSKLHSGVPSRFSGSGSGTDFTLTISSLQPEDFATYYCQQGNTLPFTFGQGTKLEIK
pKd: 7.44
--
binder: h13B3-S3 (antibody, V domains shown) VH: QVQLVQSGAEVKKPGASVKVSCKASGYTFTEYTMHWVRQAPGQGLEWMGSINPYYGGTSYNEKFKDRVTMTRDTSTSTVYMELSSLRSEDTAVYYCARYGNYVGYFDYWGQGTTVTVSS VL: EIVLTQSPATLSLSPGERATLSCRASSSVHYMYWYQQKPGQAPRLLIYYTSNLAPGIPARFSGSGSGTDFTLTISSLEPEDFAVYYCQQFTSSPYTFGGGTKVEIK
pKd: 7.89
--
binder: h16B3-S1 (antibody, V domains shown) VH: EVQLVESGGGLVQPGGSLRLSCAASGFTFSGYTMSWVRQAPGKGLEWVSEISFARDRAFYPDTVKGRFTISRDNSKNTLYLQMNSLRAEDTAVYYCAKLGGRNHDYWYFDVWGQGTTVTVSS VL: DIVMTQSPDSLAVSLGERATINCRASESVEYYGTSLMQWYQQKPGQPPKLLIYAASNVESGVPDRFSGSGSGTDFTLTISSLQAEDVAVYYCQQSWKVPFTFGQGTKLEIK
pKd: 7.96

Now consider the entry below.
For this binder ( h53A11-S2 (antibody, V domains shown) VH: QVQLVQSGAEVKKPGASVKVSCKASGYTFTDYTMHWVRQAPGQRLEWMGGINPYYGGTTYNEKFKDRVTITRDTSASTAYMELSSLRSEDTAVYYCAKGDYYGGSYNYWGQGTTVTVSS VL: EIVMTQSLATLSVSPGERATLSCRASQDISNSLHWYQQKPGQAPRLLIYYASQSISGIPARFSGSGSGTEFTLTISSLQSEDFAVYYCQQSNSWPYTFGQGTKLEIK ), measured pKd is 8.37
